Data provenance is the supplement of paper PMC6555819.

test system: LXRa:RXRa (NR concentration 270 nM, RXRa partner concentration 90 nM); test: PBM binding z-score (relative to random genomic background probes); higher = stronger binding; sequences stand for … in GC…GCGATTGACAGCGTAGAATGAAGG
Grouping by measured PBM binding z-score is done with the following cut points: bottom end (below 0.6), midrange (0.6 to below 2), top end (2 or more)

The examples below pair each entry with its known result.
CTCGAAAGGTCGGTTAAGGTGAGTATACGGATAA	top end
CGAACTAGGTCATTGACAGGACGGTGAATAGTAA	top end
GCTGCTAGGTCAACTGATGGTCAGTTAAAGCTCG	top end
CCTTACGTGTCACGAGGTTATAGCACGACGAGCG	midrange
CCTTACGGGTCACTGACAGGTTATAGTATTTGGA	top end
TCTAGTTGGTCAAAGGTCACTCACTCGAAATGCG	top end

IN: Textbook exercise: identify the category of the sequence given here, `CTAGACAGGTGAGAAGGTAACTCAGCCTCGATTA` , according to its measured value.
OUT: bottom end

IN: Textbook exercise: identify the category of the sequence given here, `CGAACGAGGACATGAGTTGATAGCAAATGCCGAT` , according to its measured value.
OUT: bottom end

IN: Textbook exercise: identify the category of the sequence given here, `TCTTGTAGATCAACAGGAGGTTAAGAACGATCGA` , according to its measured value.
OUT: midrange

IN: Textbook exercise: identify the category of the sequence given here, `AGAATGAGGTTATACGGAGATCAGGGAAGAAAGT` , according to its measured value.
OUT: midrange

IN: Textbook exercise: identify the category of the sequence given here, `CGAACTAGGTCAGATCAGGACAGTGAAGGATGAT` , according to its measured value.
OUT: midrange

IN: Textbook exercise: identify the category of the sequence given here, `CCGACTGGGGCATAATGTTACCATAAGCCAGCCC` , according to its measured value.
OUT: bottom end

IN: Textbook exercise: identify the category of the sequence given here, `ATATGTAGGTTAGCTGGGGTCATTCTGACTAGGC` , according to its measured value.
OUT: top end

* * *

Could you please report measured PBM binding z-score for the items listed next?
tested on: PPARg:RXRa DBDmut IVT, anti-RXR (DBD mutation: RXRa K156A/R161A, NR concentration 270 nM, RXRa partner concentration 90 nM); assay: PBM binding z-score (relative to random genomic background probes); higher = stronger binding; sequences stand for … in GC…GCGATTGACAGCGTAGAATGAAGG
Answers are plain numbers.

Field: example entries. Status: answers known.
CCTAGCAGGCCAATCTGTGTCACTCAAGGCTTGA	2.87
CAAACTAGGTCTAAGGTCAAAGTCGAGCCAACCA	3.97
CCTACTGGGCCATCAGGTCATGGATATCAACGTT	4.54

Hey, can you go through the list below and give me PBM binding z-score for every item?
1. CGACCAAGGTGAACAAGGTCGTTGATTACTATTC
2. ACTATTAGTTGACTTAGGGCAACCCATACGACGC
3. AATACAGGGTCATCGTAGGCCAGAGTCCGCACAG

OUT:
1. 1.95
2. 0.51
3. 2.98

* * *

Could you please report measured PBM binding z-score for the items listed next?
tested on: PXR:RXRa (NR concentration 270 nM, RXRa partner concentration 90 nM); experiment: PBM binding z-score (relative to random genomic background probes); higher = stronger binding; sequences stand for … in GC…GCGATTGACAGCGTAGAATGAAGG
One number for each entry.

Field: example entries. Status: answers known.
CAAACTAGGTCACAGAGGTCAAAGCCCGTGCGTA	6.66
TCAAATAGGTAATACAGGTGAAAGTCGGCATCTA	0.771
GCTCGGCGGACAAGGTCAGAGCTTTGTCCGTAGA	1.55
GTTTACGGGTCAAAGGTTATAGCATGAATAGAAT	6.4
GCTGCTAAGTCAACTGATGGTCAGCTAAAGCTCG	-0.575
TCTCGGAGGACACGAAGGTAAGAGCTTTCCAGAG	-0.316
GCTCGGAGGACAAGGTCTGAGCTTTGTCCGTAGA	-0.656
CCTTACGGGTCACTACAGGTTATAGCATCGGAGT	4.52

Hey, can you go through the list below and give me PBM binding z-score for every item?
1. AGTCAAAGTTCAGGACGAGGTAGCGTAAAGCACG
2. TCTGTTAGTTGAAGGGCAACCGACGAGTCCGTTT
3. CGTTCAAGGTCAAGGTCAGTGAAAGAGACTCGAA
4. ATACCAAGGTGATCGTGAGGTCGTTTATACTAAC
5. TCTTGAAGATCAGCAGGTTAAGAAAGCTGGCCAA
6. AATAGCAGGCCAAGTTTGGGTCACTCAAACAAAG

OUT:
2.36
0.704
5.02
3.27
0.0848
1.05

Hey, can you go through the list below and give me PBM binding z-score for every item?
1. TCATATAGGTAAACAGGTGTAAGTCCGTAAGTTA
2. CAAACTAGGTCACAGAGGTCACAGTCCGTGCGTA

OUT:
0.63
6.57
